Values compiled from ChEMBL document CHEMBL3507680.

assay: Human HepG2 cell viability assay in 384 well format; type: toxicity, cell-based; design: dose 125 nL, time 70.5 hour; concentration not given beside the values; conditions: HepG2 cells, read-out: Inhibition
Entries and their cytotoxicity at 70.5 h
Give the number; % is assumed, so skip it.

In [3]: df
Out[3]:
                                   compound       measured_endpoint  result_number
0  CN(C)c1ccc(C2CC(=O)Nc3c2cnn3Cc2ccco2)cc1 (stereo not drawn)  cytotoxicity at 70.5 h          -7.08
1  O=S(=O)(NC1=NCN(CCc2ccccc2)CN1)c1ccc(F)cc1  cytotoxicity at 70.5 h          -27.6
2         CCOc1ccc(C(F)(F)F)cc1NCc1cc(C)on1  cytotoxicity at 70.5 h           26.7

Form field cytotoxicity at 70.5 h, entry O=C(c1ccncc1)N1CCCC1C1CCN(Cc2ccccc2)CC1 (stereo not drawn) : 0.737

Briefly, cytotoxicity at 70.5 h measured for Cc1n[nH]cc1C(=O)N1CCCC1c1cc[nH]n1 (stereo not drawn) : -5.51

Given item "CC(=O)NCCc1ncnn1-c1ccc(F)c(Cl)c1" , the value recorded as its cytotoxicity at 70.5 h is 7.55

For record "O=C1O[C@@H]2CN(c3cnccn3)C[C@@H]2N1CCCc1ccc(F)cc1" the listed cytotoxicity at 70.5 h is -7.8

Note to self: cytotoxicity at 70.5 h recorded for "Cn1nc(C(=O)NCc2ccccc2C(F)(F)F)c2c1CCS(=O)(=O)C2" was -5.12

response.value for CCOC(=O)NC(CNC(=O)c1cc(Cl)ccn1)CC(C)C (stereo not drawn) (field: cytotoxicity at 70.5 h) = 5.7

For this compound ( O=C(NC1COC2(CCN(Cc3cccs3)CC2)C1)c1ccccn1 (stereo not drawn) ), measured cytotoxicity at 70.5 h is -2.35

// cytotoxicity at 70.5 h lookup, compound = COc1ccc2c(c1)CCCN(C(=O)NCC1CCCO1)C2 (stereo not drawn) , result: -8.68

Given item COC1(CNC(=O)c2cccc(C#N)c2)CCSC1 (stereo not drawn) , the value recorded as its cytotoxicity at 70.5 h is 42.8

Value of cytotoxicity at 70.5 h reported for the compound CC(NC(=O)NCCC(=O)OC(C)(C)C)c1nncn1C (stereo not drawn) is -0.412

Lab note: "COCc1ccccc1C(=O)OCc1noc(C)n1" gave cytotoxicity at 70.5 h of -15.9

Record CN(C)c1ncc(CN2CCOC(C(=O)Nc3ccccc3)C2)cn1 (stereo not drawn) , field cytotoxicity at 70.5 h: -6.09

# compound "CC(C)CN1Cc2c(C(=O)NC3CC3)ncn2-c2ccccc2S1(=O)=O" ; its cytotoxicity at 70.5 h = -15.8

The recorded cytotoxicity at 70.5 h for "CN(C)C(=O)Cc1ccccc1NCc1nc(Cc2ccccc2)no1" is -0.0229

Recorded cytotoxicity at 70.5 h (compound "CN(C)C(=O)[C@H]1C[C@@H]2CN(C(=O)NCC3CCCCC3)C[C@H]1O2" ): -0.82

Record summary for "Cn1ncc(NC(=O)Cn2ccc(-c3cccc(F)c3)n2)n1" : reported cytotoxicity at 70.5 h = 1.6

Record "C[C@H]1CN(Cc2cnn(C)c2)C[C@@]12CCN(Cc1cccnc1)C2=O" , field cytotoxicity at 70.5 h: -7.75

cytotoxicity at 70.5 h measured on CC(Cc1ccccn1)N(C)Cc1ccc2c(c1)CCO2 (stereo not drawn) = -8.85

cytotoxicity at 70.5 h reported for this compound "Fc1cccc(-n2nc(C3CC3)nc2CCn2cnnn2)c1" : -3.9

The compound listed as "N#Cc1cccc(CN2CCn3cc(CNC(=O)C4CCC4)nc3C2)c1" shows cytotoxicity at 70.5 h equal to -6.27

====

assay: Human HepG2 cell viability assay in 384 well format; assay type: toxicity, cell-based; design: dose 125 nL, time 70.5 hour; concentration not given beside the values; conditions: HepG2 cells, read-out: Inhibition
measured.endpoint: cytotoxicity at 70.5 h (%)
Express your answer in %, writing the number without its unit.

In [3]: df
Out[3]:
                                   compound       measured_endpoint  unit_of_measurement  result_number
0       N#CCSCCCN1CCN(C(=O)c2ccc(Cl)cc2)CC1  cytotoxicity at 70.5 h                    %           6.83
1  CNC(=O)NC(=O)CCN1CCOC(c2ccc(Br)cc2)C1 (stereo not drawn)  cytotoxicity at 70.5 h                    %          -7.41
2  Cc1ccc(-n2cc(CN3CCOCC3)c(-c3cccc(C)c3)n2)cc1  cytotoxicity at 70.5 h                    %          -2.44
3  Cc1ccc(NCCCNC(=O)NCc2c(C)cc(C)[nH]c2=O)nc1  cytotoxicity at 70.5 h                    %          -10.4
4  CN(C)CCN1CC2(CCCN(c3ncc(Cl)cc3F)C2)CCC1=O (stereo not drawn)  cytotoxicity at 70.5 h                    %          -5.68

Please fill in: cytotoxicity at 70.5 h reported for "O=C(NCCOc1ncc(Cl)cc1Cl)c1ccoc1" = 21.7

In plain terms, "Cc1ccc(CN2CCN(c3ccc(F)cn3)CC2=O)cc1C" has a documented cytotoxicity at 70.5 h of -3.51

Value of measured cytotoxicity at 70.5 h for the entry "Cc1cc(=O)[nH]c(=O)n1-c1ccccc1Br" : -2.81

Sample CCCn1nccc1C(=O)N1CCCC(C(=O)CCc2ccccc2)C1 (stereo not drawn) ; cytotoxicity at 70.5 h observed: -2.61

Entry "O=C(Nc1nncs1)c1ccc(-n2cnnn2)cc1" ; cytotoxicity at 70.5 h = 1.5

Per the record, "c1ccc(CC2(CNCc3ncc[nH]3)CCC2)cc1" has cytotoxicity at 70.5 h of -2.49

cytotoxicity at 70.5 h in this record for O=C(CN1CCCC(Cn2cncn2)C1)NCc1ccco1 (stereo not drawn) : -15.8

cytotoxicity at 70.5 h reading for "Cc1ccc(-c2nnc(CNCCn3cccn3)o2)cc1" : 13.9

====

experiment: Human HepG2 cell viability assay in 384 well format; format: toxicity, cell-based; parameters: dose 125 nL, time 70.5 hour; concentration not given beside the values; details: HepG2 cells, read-out: Inhibition
Catalogue of cytotoxicity at 70.5 h readings, one per entry.
Report as a plain number; the unit % is understood.

                                   molecule  result_number
0  NCC(CO)Cc1cccc(OC(F)(F)F)c1 (configuration not stated)           2.39
1       COc1cccc(CNCc2ccnc(N3CCOCC3)c2)c1OC          -4.37
2  CN(C)CCN(Cc1ccc(C#N)cc1)C(=O)c1ccn(C)c(=O)c1           24.8
3  CO[C@H]1CCN(S(=O)(=O)c2cccnc2)[C@@H]2CN(CC3CC3)C[C@H]12          -6.81
4  Cc1nn(C)c(C)c1CC(=O)N1CCC(N(C)c2cccnn2)CC1           20.4

Entry "COc1ccsc1C(=O)NC1CCN(c2ccc(C#N)cc2)CC1" , cytotoxicity at 70.5 h reported as -5.67

molecule OCCc1cn(CC2CCCN(Cc3nccs3)C2)nn1 (configuration not stated) , cytotoxicity at 70.5 h observed: 11.8

====

test: Human HepG2 cell viability assay in 384 well format; format: toxicity, cell-based; design: dose 125 nL, time 70.5 hour; concentration not given beside the values; conditions: HepG2 cells, read-out: Inhibition
measured.endpoint: cytotoxicity at 70.5 h (%)
Respond numerically; units are % and should not be typed.

>>> df
                               molecule  result_number
0  O=C(Cc1csc(-c2ccco2)n1)N1CCN(CCO)CC1           5.35

Reported cytotoxicity at 70.5 h ( c1csc(-c2nc(CNC3CCc4ncnn4C3)cs2)c1 (stereo not given) ) = -16.5

Form field cytotoxicity at 70.5 h, entry CCCN1CCC(c2cc(CCOc3ccc(C(F)(F)F)cc3)[nH]n2)C1 (stereo not given) : 0.882

The molecule listed as "CC(C)N1CCCn2nc(C(=O)NCCc3c[nH]cn3)cc2C1" has a reported cytotoxicity at 70.5 h of 19.8

Measured cytotoxicity at 70.5 h, "COc1ncccc1CNC(=O)C1=NN(c2ccccc2)C(=O)CN1" : 0.82

Memo: CCCc1nc(CNc2cccc(C(=O)N3CCCC(O)C3)c2)no1 (stereo not given) , reported cytotoxicity at 70.5 h: -4.84

For record "CN(C(=O)CNc1ccc(C#N)cc1)C1CCCCC1" the listed cytotoxicity at 70.5 h is -3.87

Per the record, "Cn1cc(C(=O)N2CC[C@@H]3[C@@H]2CCN3Cc2ccncc2)cn1" has cytotoxicity at 70.5 h of -12.1

In plain terms, "CN(C)S(=O)(=O)CCCN1CCc2c(ncn2C2CC2)C1" has a documented cytotoxicity at 70.5 h of 9.65
